experimentalTarget: Adenosine receptor A1 (Rattus norvegicus)
experimentDescription: Binding affinity against Adenosine A1 receptor in rat brain using [3H]- PIA
Type: tissue-based
conditionNotes: concentration not given here
Task for the reader: assign each of the following compounds its reported inhibition.
Dear colleague, please return just the value in %, with no unit written.

Exercise: Using the record for "COc1cc(/C=C/c2nc3c(c(=O)n(C)c(=O)n3C)n2CCO)cc(OC)c1OC" , report its inhibition.
Key: 26

Exercise: Thanks! And "COc1cc(/C=C/c2nc3c(c(=O)n(C)c(=O)n3C)n2C)cc(OC)c1OC/C=C/CNC(=O)OC(C)(C)C" ?
Key: 11

Exercise: Thanks! And "COc1ccc(/C=C/c2nc3c(=O)n(C)c(=O)n(C)c3[nH]2)c(OC)c1OC" ?
Key: 26

Exercise: Thanks! And "COc1cc(/C=C/c2nc3c(c(=O)n(C)c(=O)n3C)n2C)cc(OC)c1" ?
Key: 12.5

Exercise: Thanks! And "COc1cc(/C=C/c2nc3c(c(=O)n(C)c(=O)n3C)n2C)cc(OC)c1OC/C=C/CNC(C)=O" ?
Key: 17

Exercise: Thanks! And "Cn1c(=O)c2c(nc(CCc3cccc(N)c3)n2C)n(C)c1=O" ?
Key: 15

Exercise: Thanks! And "CN(C)c1ccc(/C=C/c2nc3c(c(=O)n(C)c(=O)n3C)n2C)cc1" ?
Key: 5.6
